- protocol summary: qHTS RealTime-Glo MT Cell Viability Assay in HepG2 cells - 24 hour (AID 1224867); further: nearly all actives have a fitted effect of over 50% in size
- condition info: RealTime-Glo luminescence; series mostly up to 76.8 µM
Records with an inconclusive call do not appear. Activity calls are given as the source filed them. The call rests on the fitted dose curve; in most records, active means well fitted cell-killing curve with a large enough effect in the repeat runs; inconclusive means weak or mixed curves; inactive means flat fitted curve, though single readings scatter.
Classes used: active, inactive

compound="CNC(=O)O/N=C(\\C)C(C)S(C)(=O)=O (configuration not stated)" class_label=inactive
compound="C#CCC1=C(C)C(OC(=O)C2C(C=C(C)C)C2(C)C)CC1=O (configuration not stated)" class_label=inactive
compound=NC(=O)C(Cl)Cl class_label=inactive
compound=O=[N+]([O-])c1cc(C(F)(F)F)c(Cl)c([N+](=O)[O-])c1Nc1ncc(C(F)(F)F)cc1Cl class_label=active
compound=Brc1cccc(-c2ccccc2)c1 class_label=inactive
compound="CN1[C@@H]2CC[C@H]1CC(O)C2 (some centres not stated)" class_label=inactive
compound=CC#C[C@]1(O)CC[C@H]2[C@@H]3C[C@H](C)C4=CC(=O)CC[C@]4(C)[C@H]3CC[C@@]21C class_label=inactive
compound=C[C@@H]1CC2=CC(=O)CC[C@@H]2[C@H]2CC[C@@]3(C)[C@@H](CC[C@]3(C)O)[C@@H]21 class_label=inactive
compound=CCCCn1cc[n+](C)c1.[Cl][Fe-]([Cl])([Cl])[Cl] class_label=inactive
compound="CC(O)C(=O)[O][Hg][c]1ccccc1 (configuration not stated)" class_label=active
compound=c1cc[n+]2c(c1)-c1cccc[n+]1CC2 class_label=inactive
compound=C=CCBr class_label=inactive
